This collection of values is drawn from ChEMBL document CHEMBL3885861.

WBC: recorded values
Organism: Rattus norvegicus
experiment: Open TG-GATES - Regimen: Daily Repeat
Type: toxicity, organism-based, Sprague-Dawley
Parameters: regimen Daily Repeat, gender Male, age 6 weeks
experimental_parameters: in vivo, po, 100 mg/kg, 72 h, tissue Blood, route gavage, dose level Low, time 3 day

compound: CCOC(=O)CCC(=O)O[C@H]1[C@H](O[C@@H]2[C@@H](C)[C@H](O[C@H]3C[C@@](C)(OC)[C@@H](O)[C@H](C)O3)[C@@H](C)C(=O)O[C@H](CC)[C@@](C)(O)[C@H](O)[C@@H](C)C(=O)[C@H](C)C[C@@]2(C)O)O[C@H](C)C[C@@H]1N(C)C [ERYTHROMYCIN ETHYLSUCCINATE]
WBC: 101.8 x10_2/uL

compound: COc1ccc2[nH]c([S+]([O-])Cc3ncc(C)c(OC)c3C)nc2c1 (stereo not given) [OMEPRAZOLE]
WBC: 119.7 x10_2/uL

compound: NC(N)=Nc1nc(CSCCC(N)=NS(N)(=O)=O)cs1 [FAMOTIDINE]
WBC: 87.5 x10_2/uL

compound: COC1=CC(=O)C[C@@H](C)[C@]12Oc1c(Cl)c(OC)cc(OC)c1C2=O [GRISEOFULVIN]
WBC: 97.1 x10_2/uL

compound: CCOc1ccc(NC(=O)CC(C)O)cc1 (stereo not given) [BUCETIN]
WBC: 79.2 x10_2/uL
